Subject Of Test: SARS-CoV-2 spike receptor-binding domain, Omicron BA.2 variant (amino acids 331-529), biotinylated (SARS-CoV-2 Omicron BA.2, G504D | S371F | S375F | T376A | D405N | R408S | K417N | N440K | S477N | T478K | …, biotin (RBD expression vector co-expressed with BirA-Flag, 100 μM biotin added))
Protocol Description: BLI
Condition Set: both partners purified
Recorded Kd, one value per entry.
Metric Name: Kd (nM)

{"columns": ["Binder", "Metric Name", "Observed"],
 "data": [
  ["NIV-11 Fab (Fab, V domains shown) VH: QLVQSGPEVKKPGTSVKVSCKASGFTFYYSAVQWVRQARGQRLEWLGWMAVGSGKANYAQKFQERLTLTRDMSTSTAYMELSSLRSEDTAVYYCAAPNCTGGSCYDGFNLWGQGTVVTVSS VL: EIVLTQSPGTLSLSPGDRAILSCRASQTVNSNYLAWYQQKPGQAPRLLIYGTSSRATGIPDRFSGSGSGTDFTLTISRLEPEDFAVYYCQQYGSSPWLFGQGTKVEIK", "Kd", 11],
  ["NIV-13 Fab (Fab, V domains shown) VH: EVQLLESGGGLVQPGGSLRLSCAASGFTFSRYALSWVRQAPGKGLEWVSAISGAAITTYYADSVKGRFTISRDDSRNTLFMQMDSLRAEDTAVYYCAKGDYYDSSGYLAEYFPHWGQGTLVTVSS VL: SYELTQPPSVSVSPGQTARITCFADALPKQHAYWYQQKAGQAPVLVIFKDTERPSGIPKRFSGSRSGATVTLTISGVQAEDEADYYCQSTDISGVLFGGGTKLTVL", "Kd", 1.49],
  ["NIV-10 Fab (Fab, V domains shown) VH: EVQLVESGGGLVQPGGSLRLSCAASGFTFYSYWMTWVRQAPGKGLEWVANIKHDESESHYVDSVRGRFTISRDNAKNSVYLQMKGLRAEDTAVYYCARDGGYNILTAYYHAPSYWGQGTLVTVSS VL: QSALTQPASVSGSPGQSITISCTGTSSDVGGYNFVSWYRQYPGKAPQLMIYDVSRRPSGDSDRFSGSKSGNTASLTISGLQAEDEAEYHCSSYTGRSPYVVFGGGTKVTVL", "Kd", 76.1],
  ["NIV-8 Fab (Fab, V domains shown) VH: EVQLVESGGGVVQPGRSLRLSCAASGFKFSKFAMHWVRQAPGKGPEWVAVISYDGNQYHSADSVKGRFTISRDNSFNTLYLQMNSLGPEDTAVYYCARDGPDTSGYYANIYFDFWGQGTLVTVSS VL: QSVLTQPPSVSGAPGQRVTISCTGSSSNIGAGYDVHWYQQLPGRAPKLLIFDNNNRPSGVPDRFSGSKSGTSASLAITGLQTEDEAYYYCQSYDNSLILAVFGGGTKVTVL", "Kd", 20]
]}

Ref: paper PMC10349087
